# target under test: Human CB1 receptor (Homo sapiens)
# Sequence (P21554 whole entry): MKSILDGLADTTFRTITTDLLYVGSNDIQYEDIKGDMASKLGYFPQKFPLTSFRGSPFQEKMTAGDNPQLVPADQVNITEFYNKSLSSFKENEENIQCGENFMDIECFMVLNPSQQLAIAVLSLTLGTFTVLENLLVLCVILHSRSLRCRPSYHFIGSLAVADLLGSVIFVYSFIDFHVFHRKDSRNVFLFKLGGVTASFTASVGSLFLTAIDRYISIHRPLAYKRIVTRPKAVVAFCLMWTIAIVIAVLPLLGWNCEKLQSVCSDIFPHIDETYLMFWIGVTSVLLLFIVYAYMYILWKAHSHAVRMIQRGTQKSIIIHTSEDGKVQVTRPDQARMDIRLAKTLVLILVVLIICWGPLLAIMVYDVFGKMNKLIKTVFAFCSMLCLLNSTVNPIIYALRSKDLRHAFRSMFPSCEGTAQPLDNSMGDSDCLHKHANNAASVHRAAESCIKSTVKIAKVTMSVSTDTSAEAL
# assay text: Radioligand binding assay vs [3H]CP55,940, membranes of CHO cells expressing human CB1
# condition set: CHO cell membranes
Each record is given T if its reported Ki is strictly below 4 µM. Records at or above 4 µM are given F.

molecule | classification
COc1ccc2[nH]cc(C(c3ccccc3)(c3c[nH]c4ccccc34)C(F)(F)C(F)(F)F)c2c1 (stereo not shown) | T
COc1ccc2[nH]cc(C(c3ccccc3)(c3c[nH]c4ccccc34)C(F)(F)F)c2c1 (stereo not shown) | F
Fc1cc2[nH]cc(C(c3ccccc3)(c3c[nH]c4ccccc34)C(F)(F)F)c2cc1F (stereo not shown) | T
COc1ccc2[nH]cc(C(c3ccccc3)(c3c[nH]c4cc(F)ccc34)C(F)(F)F)c2c1 (stereo not shown) | T
COc1ccc2[nH]cc(C(c3ccccc3)(c3c[nH]c4cc(F)c(F)cc34)C(F)(F)F)c2c1 (stereo not shown) | F
COc1ccc2[nH]cc(C(c3ccccc3)(c3c[nH]c4cccc(OC)c34)C(F)(F)F)c2c1 (stereo not shown) | F

---

# target under test: Human CB2 receptor (Homo sapiens)
# Sequence (P34972 whole entry): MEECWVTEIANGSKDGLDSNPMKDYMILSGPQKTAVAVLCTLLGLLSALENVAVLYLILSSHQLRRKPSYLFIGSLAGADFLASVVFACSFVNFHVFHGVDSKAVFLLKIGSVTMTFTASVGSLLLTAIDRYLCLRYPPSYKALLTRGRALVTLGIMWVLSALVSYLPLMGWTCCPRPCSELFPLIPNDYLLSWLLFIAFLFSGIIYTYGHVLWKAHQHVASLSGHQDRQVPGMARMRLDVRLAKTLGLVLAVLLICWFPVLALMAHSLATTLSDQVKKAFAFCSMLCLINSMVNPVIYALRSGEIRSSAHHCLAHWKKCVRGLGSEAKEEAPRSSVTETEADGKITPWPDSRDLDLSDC
# assay text: Radioligand binding assay vs [3H]CP55,940, membranes of CHO cells expressing human CB2
# Design: expressed in transfected cells; membrane preparations
# condition set: CHO cell membranes
In this section we review reported Ki values for a set of compounds.

compound | Ki (µM)
Fc1cc2[nH]cc(C(c3ccccc3)(c3c[nH]c4ccccc34)C(F)(F)F)c2cc1F (stereo not shown) [3n] | 6.14
COc1ccc2[nH]cc(C(c3ccccc3)(c3c[nH]c4cc(F)c(F)cc34)C(F)(F)F)c2c1 (stereo not shown) [3h] | 9.9
COc1ccc2[nH]cc(C(c3ccccc3)(c3c[nH]c4c(Br)cccc34)C(F)(F)F)c2c1 (stereo not shown) [3g] | 4.62
COc1ccc2[nH]cc(C(c3ccccc3)(c3c[nH]c4ccccc34)C(F)(F)C(F)(F)F)c2c1 (stereo not shown) [3ad] | 11.2
COc1ccc2[nH]cc(C(c3ccccc3)(c3c[nH]c4ccccc34)C(F)(F)F)c2c1 (stereo not shown) [3a] | 6.04
COc1ccc2[nH]cc(C(c3ccccc3)(c3c[nH]c4cccc(OC)c34)C(F)(F)F)c2c1 (stereo not shown) [3b] | 4.75
COc1ccc2[nH]cc(C(c3ccccc3)(c3c[nH]c4cc(F)ccc34)C(F)(F)F)c2c1 (stereo not shown) [3e] | 4.47

---

# target under test: Human CB1 receptor (Homo sapiens)
# assay text: Trupath BRET2 functional assay in HEK293 cells transfected with human CB1
# condition set: reduction of basal activity, BRET2, HEK293; read-out: EC50, inverse agonist at CB1 receptors

compound | scale unit | EC50
COc1ccc2[nH]cc(C(c3ccccc3)(c3c[nH]c4cc(F)ccc34)C(F)(F)F)c2c1 (stereo not shown) | µM | 0.786

---

# target under test: Human CB1 receptor (Homo sapiens)
# assay text: Trupath BRET2 functional assay in HEK293 cells transfected with human CB1
# condition set: read-out: IC50, blockade of CB1 receptor activation
pIC50: −log10 of the molar value.
In this section we review reported pIC50 values for a set of compounds.

compound | pIC50
COc1ccc2[nH]cc(C(c3ccccc3)(c3c[nH]c4cc(F)ccc34)C(F)(F)F)c2c1 (centres unmarked) | 5.25
COc1ccc2[nH]cc(C(c3ccccc3)(c3c[nH]c4ccccc34)C(F)(F)C(F)(F)F)c2c1 (centres unmarked) | 5.28
